test system: AMARE; test: Post-emergence herbicidal action against AMARE; type: in vivo, Amaranthus retroflexus; conditions: Amaranthus retroflexus, 504 h, 20 g/ha, visual assessment about 3 weeks after treatment, 100% = plants have died, 0% = like control plants
Below: a set of entries, each annotated with reported pest or weed control at 20 g/ha.
MEASURED QUANTITY: pest or weed control at 20 g/ha (%)

Cc1c(C(=O)Nc2nnnn2C)ccc(C(F)(F)F)c1C(=O)NC(C)C
100
CCn1nnnc1NC(=O)c1ccc(Br)c(C(=O)NC)c1Cl
100
CCNC(=O)c1c(C(F)F)ccc(C(=O)Nc2nnnn2C)c1C
90
CNC(=O)c1c(C(F)F)ccc(C(=O)Nc2nnnn2C)c1C
100
CCc1c(C(=O)Nc2nnnn2C)ccc(C(F)(F)F)c1C(=O)NC
90
CCNC(=O)c1c(C(F)F)ccc(C(=O)Nc2nnnn2C)c1C1CC1
90
CCNC(=O)c1c(C(F)(F)F)ccc(C(=O)Nc2nnnn2CC)c1C
100
CCCNC(=O)c1c(Br)ccc(C(=O)Nc2nnnn2C)c1Cl
100
CCNC(=O)c1c(Cl)ccc(C(=O)Nc2nnnn2CC)c1Br
100
